Target: T1, factor VIIIa A1/A3C1C2 dimer, Glu1984Ala (human, UniProt P00451 20-391; P00451 1709-2351)
T1 sequence 1: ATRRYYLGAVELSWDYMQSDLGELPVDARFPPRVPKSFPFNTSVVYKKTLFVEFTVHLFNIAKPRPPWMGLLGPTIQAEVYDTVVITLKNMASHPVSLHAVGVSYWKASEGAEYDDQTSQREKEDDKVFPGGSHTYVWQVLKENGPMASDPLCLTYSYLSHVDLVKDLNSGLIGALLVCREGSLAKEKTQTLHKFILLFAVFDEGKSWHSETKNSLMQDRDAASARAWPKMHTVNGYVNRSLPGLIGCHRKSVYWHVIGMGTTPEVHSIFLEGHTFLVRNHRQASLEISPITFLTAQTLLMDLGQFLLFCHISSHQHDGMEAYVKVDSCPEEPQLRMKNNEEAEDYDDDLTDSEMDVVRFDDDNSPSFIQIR
T1 sequence 2: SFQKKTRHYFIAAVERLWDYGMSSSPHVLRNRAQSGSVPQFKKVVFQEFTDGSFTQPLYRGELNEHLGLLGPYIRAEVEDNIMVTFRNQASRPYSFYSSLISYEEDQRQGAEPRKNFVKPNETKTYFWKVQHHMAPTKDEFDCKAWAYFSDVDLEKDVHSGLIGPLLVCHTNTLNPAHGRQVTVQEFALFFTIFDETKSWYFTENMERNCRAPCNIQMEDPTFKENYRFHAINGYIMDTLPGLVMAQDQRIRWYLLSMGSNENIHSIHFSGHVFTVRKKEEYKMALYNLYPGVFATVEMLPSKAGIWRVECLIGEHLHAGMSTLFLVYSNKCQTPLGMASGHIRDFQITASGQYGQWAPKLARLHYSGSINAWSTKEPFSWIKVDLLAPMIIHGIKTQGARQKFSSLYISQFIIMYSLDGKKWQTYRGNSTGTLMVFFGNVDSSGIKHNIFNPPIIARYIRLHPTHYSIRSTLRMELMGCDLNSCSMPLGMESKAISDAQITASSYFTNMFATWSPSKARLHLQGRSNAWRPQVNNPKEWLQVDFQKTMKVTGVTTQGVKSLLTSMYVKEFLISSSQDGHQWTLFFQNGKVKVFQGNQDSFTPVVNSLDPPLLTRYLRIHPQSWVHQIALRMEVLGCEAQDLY
Experiment: cell-based or functional assay
Let's look at some binders and their measured Decay rate, Factor VIIIa (1.5 nM factor VIIIa, factor IXa absent).
// units = min⁻¹; emit number, no label

Some solved entries appear below for comparison.
factor VIIIa A2 subunit, D519V and E665V (other) SVAKKHPKTWVHYIAAEEEDWDYAPLVLAPDDRSYKSQYLNNGPQRIGRKYKKVRFMAYTDETFKTREAIQHESGILGPLLYGEVGDTLLIIFKNQASRPYNIYPHGITDVRPLYSRRLPKGVKHLKDFPILPGEIFKYKWTVTVEVGPTKSDPRCLTRYYSSFVNMERDLASGLIGPLLICYKESVDQRGNQIMSDKRNVILFSVFDENRSWYLTENIQRFLPNPAGVQLEDPEFQASNIMHSINGYVFDSLQLSVCLHEVAYWYILSIGAQTDFLSVFFSGYTFKHKMVYVDTLTLFPFSGETVFMSMENPGLWILGCHNSDFRNRGMTALLKVSSCDKNTGDYYEDSYEDISAYLLSKNNAIEPR = 0.0142
factor VIIIa A2 subunit, D519A and E665V (other) SVAKKHPKTWVHYIAAEEEDWDYAPLVLAPDDRSYKSQYLNNGPQRIGRKYKKVRFMAYTDETFKTREAIQHESGILGPLLYGEVGDTLLIIFKNQASRPYNIYPHGITDVRPLYSRRLPKGVKHLKDFPILPGEIFKYKWTVTVEAGPTKSDPRCLTRYYSSFVNMERDLASGLIGPLLICYKESVDQRGNQIMSDKRNVILFSVFDENRSWYLTENIQRFLPNPAGVQLEDPEFQASNIMHSINGYVFDSLQLSVCLHEVAYWYILSIGAQTDFLSVFFSGYTFKHKMVYVDTLTLFPFSGETVFMSMENPGLWILGCHNSDFRNRGMTALLKVSSCDKNTGDYYEDSYEDISAYLLSKNNAIEPR = 0.0235
factor VIIIa A2 subunit, Asp519Ala (other) SVAKKHPKTWVHYIAAEEEDWDYAPLVLAPDDRSYKSQYLNNGPQRIGRKYKKVRFMAYTDETFKTREAIQHESGILGPLLYGEVGDTLLIIFKNQASRPYNIYPHGITDVRPLYSRRLPKGVKHLKDFPILPGEIFKYKWTVTVEAGPTKSDPRCLTRYYSSFVNMERDLASGLIGPLLICYKESVDQRGNQIMSDKRNVILFSVFDENRSWYLTENIQRFLPNPAGVQLEDPEFQASNIMHSINGYVFDSLQLSVCLHEVAYWYILSIGAQTDFLSVFFSGYTFKHKMVYEDTLTLFPFSGETVFMSMENPGLWILGCHNSDFRNRGMTALLKVSSCDKNTGDYYEDSYEDISAYLLSKNNAIEPR = 0.0266

Please look at the following binder next.
Exam item: Which Decay rate, Factor VIIIa (1.5 nM factor VIIIa, factor IXa absent) value is on record for factor VIIIa A2 subunit, Asp519Val (other) SVAKKHPKTWVHYIAAEEEDWDYAPLVLAPDDRSYKSQYLNNGPQRIGRKYKKVRFMAYTDETFKTREAIQHESGILGPLLYGEVGDTLLIIFKNQASRPYNIYPHGITDVRPLYSRRLPKGVKHLKDFPILPGEIFKYKWTVTVEVGPTKSDPRCLTRYYSSFVNMERDLASGLIGPLLICYKESVDQRGNQIMSDKRNVILFSVFDENRSWYLTENIQRFLPNPAGVQLEDPEFQASNIMHSINGYVFDSLQLSVCLHEVAYWYILSIGAQTDFLSVFFSGYTFKHKMVYEDTLTLFPFSGETVFMSMENPGLWILGCHNSDFRNRGMTALLKVSSCDKNTGDYYEDSYEDISAYLLSKNNAIEPR ?
Marked response: 0.0168
